PP1:cdNIPP1 helix MUT (Homo sapiens, UniProt P62136): recorded IC50 for assorted compounds
Sequence (P62136 whole entry, looked up): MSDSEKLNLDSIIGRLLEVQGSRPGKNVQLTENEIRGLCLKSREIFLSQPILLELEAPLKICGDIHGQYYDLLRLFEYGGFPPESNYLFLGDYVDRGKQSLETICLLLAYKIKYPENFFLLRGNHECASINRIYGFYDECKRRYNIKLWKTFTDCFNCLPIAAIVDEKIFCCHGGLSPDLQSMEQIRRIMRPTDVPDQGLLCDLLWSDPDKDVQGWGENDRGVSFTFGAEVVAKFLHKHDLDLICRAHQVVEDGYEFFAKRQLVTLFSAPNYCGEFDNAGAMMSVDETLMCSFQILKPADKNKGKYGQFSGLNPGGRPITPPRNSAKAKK
One number for each entry, in µM.

| Compound | Unit abbreviation | IC50 |
| --- | --- | --- |
| CCNC(=O)NC(=O)C(C)OC(=O)c1c2c(nc3ccccc13)/C(=C\c1ccc(OC)c(OC)c1)CC2 (centres unmarked) | µM | 2.4 |

Turning to the following compound.
COc1ccc(C=C2CCc3c2nc2ccccc2c3C(=O)OC(C)C(=O)NC2CC2)cc1OC (centres unmarked) yielded IC50 of 4.3

###

# Measurement target: PP1 MUT:cdNIPP1 RATA (Homo sapiens, UniProt P62136, A299E/G274E/L73Y/Y70W)
# Sequence (P62136 whole entry Y70W/L73Y/G274E/A299E, looked up): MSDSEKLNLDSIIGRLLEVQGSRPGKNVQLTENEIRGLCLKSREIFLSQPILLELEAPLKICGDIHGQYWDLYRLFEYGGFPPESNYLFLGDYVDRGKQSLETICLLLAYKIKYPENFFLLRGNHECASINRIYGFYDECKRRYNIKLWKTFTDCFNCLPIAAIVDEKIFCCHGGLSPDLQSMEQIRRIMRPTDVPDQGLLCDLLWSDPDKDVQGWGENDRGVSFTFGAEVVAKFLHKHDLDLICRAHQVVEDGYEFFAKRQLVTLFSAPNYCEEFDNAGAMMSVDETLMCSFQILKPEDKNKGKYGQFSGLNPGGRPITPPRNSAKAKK
# Assay details: cell-based
Measure: IC50

| Molecule | Measurement target | IC50 |
| --- | --- | --- |
| CCNC(=O)NC(=O)C(C)OC(=O)c1c2c(nc3ccccc13)/C(=C\c1ccc(OC)c(OC)c1)CC2 (centres unmarked) | PP1 MUT:cdNIPP1 RATA (Homo sapiens, UniProt P62136, A299E/G274E/L73Y/Y70W) | > 20 µM |

COc1ccc(C=C2CCc3c2nc2ccccc2c3C(=O)OC(C)C(=O)NC2CC2)cc1OC (centres unmarked) yielded IC50 of > 20 µM
